# TEST_METHOD_NOTES: 384-well plate pilot, post-Golgi transport modulator project, inhibition of yeast transport mutant growth (AID 636)
# SETTINGS: absorbance 615 nm, about 18 h, stronger effect = higher value
METRIC_NAME: inhibition (%)

>>> value_observed("CCNc1nc(N2CCOCC2)nc(N(c2ccccc2)c2ccccc2)n1")
-3.55
>>> value_observed("O=C(NCCc1ccccc1)C1CCN(S(=O)(=O)N2CCC3(CC2)OCCO3)CC1")
-2.37
>>> value_observed("COCCn1nnnc1C(c1cc2cc(OC)ccc2[nH]c1=O)N1CCC(Cc2ccccc2)CC1 (stereo not given)")
-7.87
>>> value_observed("O=C(Oc1ccc2c(c1)CCC2)N1CCOCC1")
4.87
>>> value_observed("COC(=O)c1ccccc1NS(=O)(=O)c1ccc(F)cc1")
-7.26
>>> value_observed("CC(=O)N1CCc2cc(S(=O)(=O)NC(CC(C)C)C(=O)N3CCn4c3nc3ccccc34)ccc21 (stereo not given)")
-4.4
>>> value_observed("CCOc1cccc(C(=O)Nc2cccc(-c3nc4ncccc4o3)c2C)c1")
-0.39
>>> value_observed("CCOC(=O)c1cnn(-c2cc(C)nc3c(-c4ccccc4)c(C)nn23)c1N")
-3.77
>>> value_observed("CCOCCCNCC(=O)N1CCN(S(=O)(=O)c2ccc(C)cc2)CC1")
-6.18
>>> value_observed("Cc1nnc2ccc(N3CCN(c4cccc(C(F)(F)F)c4)CC3)nn12")
-0.53

###

# TEST_METHOD_NOTES: HUVEC growth inhibition – cell-based, human, primary screen (AID 575);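 also: 100% = median of untreated cell wells with 0.1% DMSO on each plate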
# SETTINGS: HUVEC proliferation, CellTiter-Glo luminescence, 72 h; at 10 µM; stronger effect = lower value
Rule: viability below 90% gives met. Equal to or above 90% gives not met.

>>> group_label("COc1cccc(-n2nc(C(=O)Nc3ccc4c(c3)OCO4)c3ccccc3c2=O)c1")
"met"
>>> group_label("Nc1nc(C2C(=O)CCCC2=O)cs1")
"not met"
>>> group_label("CC(C)CC(=O)CN1C(=O)C2(OCCO2)c2ccccc21")
"not met"
>>> group_label("CCC(=O)N1CCN(CCN=CC2=C(O)CC(C)(C)CC2=O)CC1")
"met"
>>> group_label("CC(C)(CO)NC(=O)CCCOc1ccc(Cl)cc1Cl")
"met"
>>> group_label("N#CC1=C(N)SC(N)=C(C#N)C1c1ccc(C(F)(F)F)cc1")
"met"
>>> group_label("Nn1c(SCC(=O)Nc2ccc(Oc3ccccc3)cc2)nnc1C1CC1")
"met"
>>> group_label("CCCN1C=CC(=C2C(=O)c3ccccc3C2=O)C=C1")
"met"

###

# TEST_METHOD_NOTES: reversal of MRP1-mediated doxorubicin resistance, pilot screen, H69AR cells, doxorubicin co-treatment (AID 601)
# SETTINGS: H69AR cells, CellTiter-Glo, 72 h; compound alone cytotoxicity; at 10 µM
METRIC_NAME: viability (%)

>>> value_observed("O=C(CN1CCC(NC(=O)c2ccc(F)cc2)CC1)NCc1ccccc1F")
103
>>> value_observed("CCCNC(=O)NC(C(=O)OC)C12CC3CC(CC(C3)C1)C2 (centres undefined)")
102
>>> value_observed("COc1ccc(-c2c(C(F)(F)F)oc3c(CN4CCN(C)CC4)c(O)ccc3c2=O)cc1")
102
>>> value_observed("O=S(=O)(NCc1ccccc1)c1ccc2c(c1)OCCO2")
76.8
>>> value_observed("COc1ccc(-c2nnc(SCC#N)o2)cc1")
103
>>> value_observed("Cc1nc(NC(=O)C2CC3CCCC(C2)C3=O)sc1C (centres undefined)")
82.8
>>> value_observed("O=C(Nc1ccc(Cl)cc1C(=O)Nc1ccncc1)c1ccco1")
41.3
>>> value_observed("Cc1ccc(S(=O)(=O)N2CCOCC(=O)NCCOCCNC(=O)COCC2)cc1")
106
>>> value_observed("O=C(O)CCC1(C(=O)O)OCCc2ccccc21 (centres undefined)")
97.5
>>> value_observed("COc1cccc(-c2csc3nnc(SCC(=O)c4ccc(NC(C)=O)cc4)n23)c1")
90
>>> value_observed("Cc1ccc(NC2c3ncccc3C(=O)N2C2CCCCC2)cc1C (centres undefined)")
92.7
>>> value_observed("Cc1ccc(Nc2cc(-n3nc(C)cc3C)ncn2)cc1")
74.8
>>> value_observed("Cc1cc2ncn(C(=O)c3c(-c4ccccc4)noc3C)c2cc1C")
81.8
>>> value_observed("COC(=O)Cn1cnc2c(nnn2-c2ccc(C)cc2)c1=O")
94.7
>>> value_observed("O=C(O)c1cc(=O)cc(C(=O)O)[nH]1")
105
>>> value_observed("CC(Oc1ccccc1)C(=O)NC1CCN(Cc2ccccc2)CC1 (centres undefined)")
93.5
>>> value_observed("c1ccc2c(c1)CNc1ccccc1C2")
93.1
>>> value_observed("Cc1oc(-c2ccccc2Cl)nc1CSCC(=O)N1CCCC1")
99.5
>>> value_observed("CCOC(=O)N1CCC2(O)CCCCC2C1c1ccc(F)cc1 (centres undefined)")
96.8
>>> value_observed("COc1cc2c(=O)n(Cc3ccccc3)c(=O)n(CC(=O)NCc3ccco3)c2cc1OC")
86.2
>>> value_observed("COc1cc2c(cc1OC)C(c1cccnc1)CC(=O)N2 (centres undefined)")
97.4
>>> value_observed("CCOC(=O)CSc1cn2c(n1)CCC2")
92.4
>>> value_observed("Cn1c2ccc(F)cc2c2ncn(CCN3CCOCC3)c(=O)c21")
97.4
>>> value_observed("O=S(=O)(c1ccccc1)c1nc(-c2cccs2)oc1NCC1CCCO1 (centres undefined)")
99.7
